Test Summary: Binding affinity to FAM-labeled 5'-biotin-d [GCGTCCACCCTCCCTGCCCCGCCGCCCCCCCITCTCCCAGC]-3' i-motif DNA (unknown origin) by microscale thermophoresis assay
Quantity: Kd (µM)
Answers are plain numbers, in µM.

Compound Structure String	Quantity	Reported Result
C[n+]1ccc(-c2c3nc(c(-c4cc[n+](C)cc4)c4ccc([nH]4)c(-c4cc[n+](C)cc4)c4ccc([nH]4)c(-c4cc[n+](C)cc4)c4nc2C=C4)C=C3)cc1	Kd	463

Incoming: Give recorded Kd. Cc1ccc2c(c1)c(=O)c1cc(C(=O)NCCCN(C)CCCN3C(=O)c4cccc5c(N6CCN(C)CC6)ccc(c45)C3=O)ccc1n2-c1ccc(C(=O)NCCCN(C)CCCN2C(=O)c3cccc4c(N5CCN(C)CC5)ccc(c34)C2=O)cc1
Outgoing: 4.52

###

Experimental Target: Quadruplex DNA
Test Summary: Binding affinity to FAM-labeled 5'-biotin-d [GCTGGGAGAAGGGGGGGCGGCGGGGCAGGGAGGGTGGACGC]-3' G4-quadruplex DNA (unknown origin) by microscale thermophoresis assay
Type: nucleic-acid assay
Answer each item with its documented Kd.
Numbers only, in µM.

Compound	Experimental Target	Kd, µM
Cc1ccc2c(c1)c(=O)c1cc(C(=O)NCCCN(C)CCCN3C(=O)c4cccc5c(N6CCN(C)CC6)ccc(c45)C3=O)ccc1n2-c1ccc(C(=O)NCCCN(C)CCCN2C(=O)c3cccc4c(N5CCN(C)CC5)ccc(c34)C2=O)cc1	Quadruplex DNA	6.11

Here is the next item to consider.
Incoming: Tell me Kd reported for C[n+]1ccc(-c2c3nc(c(-c4cc[n+](C)cc4)c4ccc([nH]4)c(-c4cc[n+](C)cc4)c4ccc([nH]4)c(-c4cc[n+](C)cc4)c4nc2C=C4)C=C3)cc1 [TMPYP4]
Outgoing: 3.96

###

Test Summary: Binding affinity to FAM-labeled 5'-biotin-d[TATAGCTATA-HEG-TATAGCTATA]- 3' duplex DNA (unknown origin) by microscale thermophoresis assay
Exercise: for every item that follows, state its recorded Kd.
Give bare numbers, in µM.

Record Kd per entry; entries follow.
1. C[n+]1ccc(-c2c3nc(c(-c4cc[n+](C)cc4)c4ccc([nH]4)c(-c4cc[n+](C)cc4)c4ccc([nH]4)c(-c4cc[n+](C)cc4)c4nc2C=C4)C=C3)cc1
2. Cc1ccc2c(c1)c(=O)c1cc(C(=O)NCCCN(C)CCCN3C(=O)c4cccc5c(N6CCN(C)CC6)ccc(c45)C3=O)ccc1n2-c1ccc(C(=O)NCCCN(C)CCCN2C(=O)c3cccc4c(N5CCN(C)CC5)ccc(c34)C2=O)cc1

Outgoing:
1: 1310; 2: 529
